Hey, just so you know, these numbers are from ChEMBL document CHEMBL1201862.

Known GI50 of a selection of compounds
Tested on: SK-MEL-28
ASSAY COMMENT: NCI tumour cell line growth inhibition, 48 h
Calls of active or inactive are those of the source. Rule as the data show it: active = GI50 up to about 1.1 µM and inactive = higher.
MEASURED PROPERTY: GI50

| COMPOUND | TARGET OR TEST SYSTEM | READING |
| --- | --- | --- |
| CC1CC(C)C2OC2(C)C[C@H](C)C(=O)NC(C)C(=O)N(C)[C@H](Cc2c(Br)[nH]c3ccccc23)C(=O)N[C@@H](c2ccc(O)cc2)CC(=O)O1 (stereo not given in full) | SK-MEL-28 | 0.839 µM (active) |
| Cc1cnc[nH]c1=O | SK-MEL-28 | > 100 µM (inactive) |
| O=[N+]([O-])c1ccc2c(c1)C(N1CCN(CCO)CC1)Cc1ccc(F)cc1S2 (stereo not given) | SK-MEL-28 | 1.96 µM (inactive) |
| O=C1NC2C(=O)N(Cc3ccccc3)C(=O)C2N1 (stereo not given) | SK-MEL-28 | > 100 µM (inactive) |
| S=C1c2ccccc2N=C(NC2CCCC2)C2CSCN12 (stereo not given) | SK-MEL-28 | 89.7 µM (inactive) |
| C=CCn1cc(C(=O)NC(=O)NCCCCCOC(=O)CCCCCCCCCCC(=O)OCCCCCNC(=O)NC(=O)c2cn(CC=C)c(=O)n(C)c2=O)c(=O)n(C)c1=O | SK-MEL-28 | > 100 µM (inactive) |
| Oc1cc(O)c2c(c1)O[C@H](c1cc(O)c(O)c(O)c1)[C@@H](O)C2 [GALLOCATECHIN] | SK-MEL-28 | 43.3 µM (inactive) |
| CNC(=O)CNC(=O)CCC(=O)OC | SK-MEL-28 | > 100 µM (inactive) |
| CC1(O)CCn2c(=O)c3cc4ccccc4cc3c(=O)n2C1O (stereo not given) | SK-MEL-28 | > 100 µM (inactive) |
| COc1ccc(/C=N/N=C(\N)NO)cc1OC | SK-MEL-28 | > 100 µM (inactive) |

====

System: RXF 631
ASSAY COMMENT: NCI tumour cell line growth inhibition, 48 h
Activity calls are given as the source filed them. Cut-off read from the data, not from the text of the source: active = GI50 up to about 1.1 µM and inactive = higher.
Outcome codes: t = active, f = inactive

| COMPOUND | CLASSIFICATION |
| --- | --- |
| COC1C(C)OC(OC2CC(C)(O)Cc3cc4c(c(O)c32)C(=O)c2c(O)cc3c(c2C4=O)OC2OC3(C)C(O)C(N(C)C)C2O)C(OC)C1(C)OC (stereo not given) | t |
| O=C(N/C(=C\c1cccc([N+](=O)[O-])c1)c1nc2cc([N+](=O)[O-])ccc2[nH]1)c1ccccc1 | f |
| CCC[S+]([O-])c1nc(COC(=O)NC)c(COC(=O)NC)n1C (stereo not given) | f |
| CC(=O)/C=C\C1CC2C=CC1C2 (stereo not given) | f |
| CC(=O)NC(CCCNC(=O)OCc1ccccc1)C(=O)O (stereo not given) | f |
| CSc1nc(NC2OCC(OC(C)=O)C(OC(C)=O)C2OC(C)=O)c(/N=C(\C)C(C)=O)c(=O)n1C (stereo not given) | f |
| Cc1nc(C(N)=O)c(N)n1CCN1CCN(C(=O)CCCCCCCCCCNC2NC=Nc3[nH]cnc32)CC1 (stereo not given) | f |
| CCC12CCCN(Cc3ccccc3)C1c1c(n(C)c3ccccc13)C(C(=O)OC)C2 (stereo not given) | f |
| CCCCCNC(=O)c1c(O)[nH]c(=S)[nH]c1=O | f |
| Cc1cnc[nH]c1=O | f |
| COc1ccc(/C=C\c2cc(OC)c(OC)c(OC)c2)cc1OCC(=O)O | f |
| Cc1ccc(C)c(NC(=O)CC2SC(Nc3ccccc3Cl)=NC2=O)c1 (stereo not given) | f |
| COc1cccc(-c2cc(=O)c3cc(C)c(C)c(C(=O)O)c3o2)c1 | f |
| CC1(O)CCC2(C#N)CCC1C2O (stereo not given) | f |
| c1ccc(-c2nnc3nn4c(-c5ccccc5)cnnc4c3c2-c2ccccc2)cc1 | f |
